- Measurement Target: human vasopressin V1a receptor (human, UniProt P37288 1-418)
- Sequence (P37288 whole entry): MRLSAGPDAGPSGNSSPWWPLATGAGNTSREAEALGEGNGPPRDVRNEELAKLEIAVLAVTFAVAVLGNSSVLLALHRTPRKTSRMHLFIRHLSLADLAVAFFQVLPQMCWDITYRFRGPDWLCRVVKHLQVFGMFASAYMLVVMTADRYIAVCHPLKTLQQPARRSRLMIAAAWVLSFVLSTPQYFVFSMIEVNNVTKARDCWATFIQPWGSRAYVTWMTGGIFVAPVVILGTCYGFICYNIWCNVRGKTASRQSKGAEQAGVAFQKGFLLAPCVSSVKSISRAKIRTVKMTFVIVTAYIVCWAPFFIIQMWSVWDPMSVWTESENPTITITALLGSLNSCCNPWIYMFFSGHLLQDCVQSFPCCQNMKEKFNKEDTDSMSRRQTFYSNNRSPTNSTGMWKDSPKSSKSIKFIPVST
- Assay Summary: cell-based or functional assay
Bridges are numbered along the chain shown (N, C = ends). Where no end group is shown, it is not given here. [ ]: non-standard residue; d: D form. Sec = N[C@@H](C[SeH])C(=O)O
Measure Name: Emax, IP-One HTRF assay (%)

These recorded examples may help you get a feel for the data.
binder="CYIQNCPLG-OH (disulfide 1-6) [[S-S]-OT-OH]" quantitative_result=77
binder="CYIQNCPLX (C-terminal amide; Cys1 and Cys6 form the cyclic part (disulfide)) [Oxytocin]" quantitative_result=79

P. [Sec]YIQNCPLG-NH2 (bridge 1-6 via selenosulfide) [[C1U]-OT]
Q. CYIQN[Sec]PLG-NH2 (bridge 1-6; also: selenosulfide bond) [[C6U]-OT]
Query: # returns the entry with the larger Emax, IP-One HTRF assay; inputs P and Q Answer = label.
Response: P
(P: 96%, Q: 67%)
